pIC50 overview
Test system: T1, purified recombinant MHC II protein, allele DRB1*1301 (human)
T1 construct: bought from Benaroya Research Institute; also called MHC-II DR molecule
Method: MHC II competition binding assay;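 note: Peptide–MHC II complexes pulled from equilibrium mixtures onto ELISA plates carrying a conformation-specific anti-HLA-DR antibody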
To interpret pIC50, take it as minus log10 of a concentration measured in moles per litre.

Please review the entries below; each comes with its answer.
INSERT INTO assay_data (binder, endpoint_result) VALUES
  ('GVDFFMNEGTPVKAISSGKIV (synthetic mutated peptide of the lysostaphin catalytic domain; also called I41E) [cluster 2 peptide with Ile41Glu]', 3.85),
  ('GVDFFMNIGTPVHAISSGKIV (synthetic mutated peptide of the lysostaphin catalytic domain; also called K46H) [cluster 2 peptide with Lys46His]', 3.67);

Now let's try a different one.
For record GVDFFMNIGTPVKAISSGKIV [cluster 2 wild-type (C2WT) epitope peptide] the listed pIC50 is 3.98
